Reference source: patent US7642251B2

Item-by-item account of IC50
Biological target: HCV NS5B (Hepatitis C virus genotype 1b, UniProt Q9WMX2)
Construct: The cDNA encoding the NS5B protein of HCV, genotype 1b; made in house; host or cells: E. coli BL21(DE3)
Sequence (Q9WMX2 2420-2992): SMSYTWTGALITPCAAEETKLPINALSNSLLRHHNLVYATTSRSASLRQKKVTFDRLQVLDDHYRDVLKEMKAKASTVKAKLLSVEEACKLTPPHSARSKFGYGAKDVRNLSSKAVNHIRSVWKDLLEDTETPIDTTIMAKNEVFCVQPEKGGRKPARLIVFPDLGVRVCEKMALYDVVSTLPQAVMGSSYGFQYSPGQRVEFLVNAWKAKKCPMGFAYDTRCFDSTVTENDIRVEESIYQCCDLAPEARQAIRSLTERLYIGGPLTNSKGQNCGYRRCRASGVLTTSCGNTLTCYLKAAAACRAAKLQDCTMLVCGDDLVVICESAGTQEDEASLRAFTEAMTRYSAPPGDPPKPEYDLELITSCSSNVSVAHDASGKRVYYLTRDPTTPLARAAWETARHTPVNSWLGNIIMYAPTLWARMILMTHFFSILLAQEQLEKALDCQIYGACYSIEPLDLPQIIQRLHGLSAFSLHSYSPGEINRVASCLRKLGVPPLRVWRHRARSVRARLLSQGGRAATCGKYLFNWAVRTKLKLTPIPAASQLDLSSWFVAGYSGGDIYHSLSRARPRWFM
Assay: Modified HCV NS5B RdRp enzyme assay (preincubation protocol)
Format: biochemical
Settings: preincubation protocol; read-out: IC50

Solved entries:
COc1ccc2c(c1)CC(c1ncccc1C(=O)N1CCOCC1)Cn1c-2c(C2CCCCC2)c2ccc(C(=O)NS(=O)(=O)N(C)C)cc21 (centres unmarked) ... 4.58 to 500 nM
COc1ccc2c(c1)C=C(c1ncccc1C(=O)N1CCOCC1)Cn1c-2c(C2CCCCC2)c2ccc(C(=O)NS(=O)(=O)N(C)C)cc21 ... 4.58 to 500 nM
COc1ccc2c(c1)C=C(c1ncccc1C(=O)N(C)C)Cn1c-2c(C2CCCCC2)c2ccc(C(=O)O)cc21 ... 4.58 to 500 nM
COc1ccc2c(c1)C=C(c1ccccc1)Cn1c-2c(C2CCCCC2)c2ccc(C(=O)NS(=O)(=O)C(C)C)cc21 ... 4.58 to 500 nM
COc1ccc2c(c1)C=C(c1cccc(N3CCOCC3)n1)Cn1c-2c(C2CCCCC2)c2ccc(C(=O)O)cc21 ... > 500 nM

Give the measured IC50 of `COc1ccc2c(c1)C=C(c1ccccc1NC(=O)C1CC1)Cn1c-2c(C2CCCCC2)c2ccc(C(=O)NS(=O)(=O)C(C)C)cc21` .
4.58 to 500 nM

Give the measured IC50 of `COc1ccc2c(c1)C=C(c1ncccc1C(=O)N1CCOCC1)Cn1c-2c(C2CCCCC2)c2ccc(C(=O)O)cc21` .
4.58 to 500 nM

Give the measured IC50 of `COc1ccc2c(c1)C=C(c1ncccc1C(=O)N1CCCCC1)Cn1c-2c(C2CCCCC2)c2ccc(C(=O)O)cc21` .
4.58 to 500 nM

Give the measured IC50 of `COc1ccc2c(c1)C=C(c1cc(C(F)(F)F)ccc1N1CCOCC1)Cn1c-2c(C2CCCCC2)c2ccc(C(=O)NS(=O)(=O)C(C)C)cc21` .
> 500 nM
